Where do the numbers come from? From paper PMC6471336.

- Substrate: O=c1[nH]c(=O)c2[nH]c(=O)[nH]c2[nH]1
- ASSAY_INFO: purified protein
- Format: biochemical, Latimeria menadoensis
- DETAILS: 50 mM sodium borate pH 8.0, 30 °C, 15-120 µM uric acid
MEASURED_PARAMETER: kcat/Km (M⁻¹ s⁻¹)

[[record]]
protein = "L. menadoensis uricase N289C mutant (enzyme, UniProt M3XGK0 1-306, looked up, Uricase (urate oxidase) of Latimeria menadoensis, 306 amino acids, same construct as the wild type (pET20LM-UOX) with N289C by site-directed mutagenesis; His6 tag joined by two residues from the XhoI site, as in m1; source: E. coli BL21(DE3), purified (Ni-NTA IMAC, gel filtration); not shown: His6, C-terminal, kept) MSHYVSSTRFQKDTDVEFVRTGYGKNIVKVLHIKREGKTHYIKEVEVAVQLALKSRKDYLYGDNSDIIPTDTMKNTVHALAKLKGINTIEEFAMDICEHFLTSFNHVTRANTYVEEAPWKRMEKNEVKHVHAFIYSPEATRFCEVEHHQNEPPVVHSGIKDMKVLKTTQSGFEGFVKDRFTTLPEVTDRCFSTVIYSKWLYNRSKNIDFDAAWKTVYDVIIEKFAGPYECGEYSPSVQKTLYETQVLCLNRVPEIEEVEIVMPNKHYFTIDMSKIGIVNKDEVLLPLDCPSGNITGTVRRKAHSKL"
endpoint_value = "1.12e+06"

